# Test Details: In vivo pharmacokinetic and oral bioavailability
# Condition Parameters: i.v. 2.5 mg/kg, male Swiss mice
Result Type: Vdz (L/kg)
Could you give me the number in L/kg? Just the number is fine.

The examples below pair each entry with its known result.
compound="O=C1CCc2cc(/C=C/C(=O)N3CC4C=C(c5ccsc5)CC4C3)cnc2N1 (stereo not shown)" result_type=Vdz recorded_result=1.2
compound="O=C1CCc2cc(/C=C/C(=O)N3CC4C=C(c5ccccc5)CC4C3)cnc2N1 (stereo not shown)" result_type=Vdz recorded_result=1.5

Looking up O=C1CCc2cc(/C=C/C(=O)N3CC4C=C(c5ccncc5)CC4C3)cnc2N1 (stereo not shown) , I see its Vdz listed as 3.7

Looking up O=C1CCc2cc(/C=C/C(=O)N3C[C@@H]4CC(c5ccccc5)=C[C@@H]4C3)cnc2N1 (single isomer, unassigned) , I see its Vdz listed as 1.3

---

# Test Details: In vivo pharmacokinetic and oral bioavailability
# Condition Parameters: i.v. 2.5 mg/kg, male Swiss mice, 20% HP-β-CD solution
Result Type: C0 (ng/mL)
Could you give me the number in ng/mL? Just the number is fine.

The examples below pair each entry with its known result.
compound="O=C1CCc2cc(/C=C/C(=O)N3CC4C=C(c5ccsc5)CC4C3)cnc2N1 (stereo not shown)" result_type=C0 unit_symbol=ng/mL recorded_result=4154
compound="O=C1CCc2cc(/C=C/C(=O)N3C[C@@H]4CC(c5ccccc5)=C[C@@H]4C3)cnc2N1 (single isomer, unassigned)" result_type=C0 unit_symbol=ng/mL recorded_result=2929
compound="O=C1CCc2cc(/C=C/C(=O)N3CC4C=C(c5ccccc5)CC4C3)cnc2N1 (stereo not shown)" result_type=C0 unit_symbol=ng/mL recorded_result=2921

Looking up O=C1CCc2cc(/C=C/C(=O)N3CC4C=C(c5ccncc5)CC4C3)cnc2N1 (stereo not shown) , I see its C0 listed as 2333

---

Each entry below carries its recorded MIC90.
# System: Escherichia coli ATCC 25922; reference strain
# Test Details: Antimicrobial spectrum, broth microdilution MIC
# Format: cell-based
# Condition Parameters: E. coli ATCC 25922

The examples below pair each entry with its known result.
compound="O=C1CCc2cc(/C=C/C(=O)N3C[C@@H]4CC(c5ccccc5)=C[C@@H]4C3)cnc2N1 (single isomer, unassigned)" result_type=MIC90 recorded_result="4 µg/mL"
compound="O=C1CCc2cc(/C=C/C(=O)N3CC4C=C(c5ccoc5)CC4C3)cnc2N1 (stereo not drawn)" result_type=MIC90 recorded_result=">8 µg/mL"
compound=O=C1CCc2cc(/C=C/C(=O)N3C[C@@H]4CN(c5ccccc5)C[C@@H]4C3)cnc2N1 result_type=MIC90 recorded_result=">8 µg/mL"
compound="O=C1CCc2cc(/C=C/C(=O)N3CC4C=C(c5ccccc5)CC4C3)cnc2N1 (stereo not drawn)" result_type=MIC90 recorded_result=">32 µg/mL"
compound="O=C1CCc2cc(/C=C/C(=O)N3CC4C=C(c5ccncc5)CC4C3)cnc2N1 (stereo not drawn)" result_type=MIC90 recorded_result=">8 µg/mL"

Attention now shifts to the item below.
Looking up O=C1CCc2cc(/C=C/C(=O)N3CC4C=C(c5ccsc5)CC4C3)cnc2N1 (stereo not drawn) , I see its MIC90 listed as >8 µg/mL

---

# System: Staphylococcus aureus ATCC 29213
# Test Details: Antibacterial susceptibility testing: IC90 determination (STA)
# Assay type: cell-based
# Condition Parameters: STA ATCC 29213, 90% inhibitory concentration for bacterial growth
Cut-off 0.2 µg/mL on STA (361.159) IC90, inclusive. At or above means Fulfilled; below means Not fulfilled.

Consider the worked cases shown below.
molecule="O=C1CCc2cc(/C=C/C(=O)N3C[C@@H]4CN(c5ccccc5)C[C@@H]4C3)cnc2N1 [compound 2]" classification=Fulfilled
molecule="Cc1ccccc1N1C[C@H]2CN(C(=O)/C=C/c3cnc4c(c3)CCC(=O)N4)C[C@H]2C1 [compound 17]" classification=Fulfilled
molecule="O=C1CCc2cc(/C=C/C(=O)N3CC4C=C(c5ccoc5)CC4C3)cnc2N1 (stereo not drawn) [compound 22]" classification=Fulfilled

Reported STA (361.159) IC90 at or above 0.2 µg/mL? N#Cc1ccccc1C1=CC2CN(C(=O)/C=C/c3cnc4c(c3)CCC(=O)N4)CC2C1 (stereo not drawn) [compound 23] Fulfilled

Reported STA (361.159) IC90 at or above 0.2 µg/mL? Cc1ccccc1C1=CC2CN(C(=O)/C=C/c3cnc4c(c3)CCC(=O)N4)CC2C1 (stereo not drawn) [compound 11] Fulfilled

Reported STA (361.159) IC90 at or above 0.2 µg/mL? O=C1CCc2cc(/C=C/C(=O)N3C[C@@H]4CN(c5nccs5)C[C@@H]4C3)cnc2N1 [compound 24] Fulfilled

Reported STA (361.159) IC90 at or above 0.2 µg/mL? O=C1CCc2cc(/C=C/C(=O)N3C[C@@H]4CC(c5ccccc5)=C[C@@H]4C3)cnc2N1 (single isomer, unassigned) [compound 14] Not fulfilled

Reported STA (361.159) IC90 at or above 0.2 µg/mL? O=C1CCc2cc(/C=C/C(=O)N3CC4C=C(c5ccccc5)CC4C3)cnc2N1 (stereo not drawn) [compound 1] Not fulfilled

Reported STA (361.159) IC90 at or above 0.2 µg/mL? O=C1CCc2cc(/C=C/C(=O)N3CC4C=C(c5ccsc5)CC4C3)cnc2N1 (stereo not drawn) [compound 10] Not fulfilled

Entry source: patent US9617262B2
